- protocol: Probe fluorescence ratio response to arachidonic acid relative to ADIFAB2
- Type: binding
- condition_set: arachidonic acid; response relative to ADIFAB2
DR/DR AA below 0.5 gives No; DR/DR AA at or above it gives Yes.

Prompt: Check the entry 70Q, 72A (protein, listed as Rattus norvegicus, PEPTIDE (1)...(131) wild-type rat intestinal fatty acid binding protein) AFDGTWKVDRNENYEKFMEKMGINVVKRKLGAHDNLKLTITQEGNKFTVKESSNFRNIDVVFELGVDFAQSAADGTELTGTWTMEGNKLVGKFKRVDNGKELIAVREISGNELIQTYTYEGVEAKRIFKKE : does DR/DR AA equal or exceed 0.5?
Response: Yes

Prompt: Hi, just wondering whether 106V, 72A (protein, listed as Rattus norvegicus, PEPTIDE (1)...(131) wild-type rat intestinal fatty acid binding protein) AFDGTWKVDRNENYEKFMEKMGINVVKRKLGAHDNLKLTITQEGNKFTVKESSNFRNIDVVFELGVDFAYSAADGTELTGTWTMEGNKLVGKFKRVDNGKELIAVVEISGNELIQTYTYEGVEAKRIFKKE shows DR/DR AA of 0.5 or higher.
Response: No

Prompt: Is DR/DR AA at least 0.5? Consider 14L 31W 117V 72A (protein, listed as Rattus norvegicus, PEPTIDE (1)...(131) wild-type rat intestinal fatty acid binding protein) AFDGTWKVDRNENLEKFMEKMGINVVKRKLWAHDNLKLTITQEGNKFTVKESSNFRNIDVVFELGVDFAYSAADGTELTGTWTMEGNKLVGKFKRVDNGKELIAVREISGNELIQTVTYEGVEAKRIFKKE
Response: Yes

Prompt: Hi, just wondering whether 72V 73W 74S (protein, listed as Rattus norvegicus, PEPTIDE (1)...(131) wild-type rat intestinal fatty acid binding protein) AFDGTWKVDRNENYEKFMEKMGINVVKRKLGAHDNLKLTITQEGNKFTVKESSNFRNIDVVFELGVDFAYSVWSGTELTGTWTMEGNKLVGKFKRVDNGKELIAVREISGNELIQTYTYEGVEAKRIFKKE shows DR/DR AA of 0.5 or higher.
Response: Yes

Prompt: Say whether 14D, 72A (protein, listed as Rattus norvegicus, PEPTIDE (1)...(131) wild-type rat intestinal fatty acid binding protein) AFDGTWKVDRNENDEKFMEKMGINVVKRKLGAHDNLKLTITQEGNKFTVKESSNFRNIDVVFELGVDFAYSAADGTELTGTWTMEGNKLVGKFKRVDNGKELIAVREISGNELIQTYTYEGVEAKRIFKKE shows DR/DR AA of 0.5 or more.
Response: No

Prompt: Determine whether measured DR/DR AA meets or exceeds 0.5 for 73I 72A (protein, listed as Rattus norvegicus, PEPTIDE (1)...(131) wild-type rat intestinal fatty acid binding protein) AFDGTWKVDRNENYEKFMEKMGINVVKRKLGAHDNLKLTITQEGNKFTVKESSNFRNIDVVFELGVDFAYSAIDGTELTGTWTMEGNKLVGKFKRVDNGKELIAVREISGNELIQTYTYEGVEAKRIFKKE
Response: No

Prompt: Form field: DR/DR AA at least 0.5? Entry: 14H, 72A (protein, listed as Rattus norvegicus, PEPTIDE (1)...(131) wild-type rat intestinal fatty acid binding protein) AFDGTWKVDRNENHEKFMEKMGINVVKRKLGAHDNLKLTITQEGNKFTVKESSNFRNIDVVFELGVDFAYSAADGTELTGTWTMEGNKLVGKFKRVDNGKELIAVREISGNELIQTYTYEGVEAKRIFKKE
Response: No

Prompt: Hi team, for 104N, 72A (protein, listed as Rattus norvegicus, PEPTIDE (1)...(131) wild-type rat intestinal fatty acid binding protein) AFDGTWKVDRNENYEKFMEKMGINVVKRKLGAHDNLKLTITQEGNKFTVKESSNFRNIDVVFELGVDFAYSAADGTELTGTWTMEGNKLVGKFKRVDNGKELINVREISGNELIQTYTYEGVEAKRIFKKE , is the recorded DR/DR AA at or above 0.5?
Response: Yes

Prompt: Identify whether the reported DR/DR AA of the following molecule is 0.5 or greater: 72T 73I 74A (protein, listed as Rattus norvegicus, PEPTIDE (1)...(131) wild-type rat intestinal fatty acid binding protein) AFDGTWKVDRNENYEKFMEKMGINVVKRKLGAHDNLKLTITQEGNKFTVKESSNFRNIDVVFELGVDFAYSTIAGTELTGTWTMEGNKLVGKFKRVDNGKELIAVREISGNELIQTYTYEGVEAKRIFKKE
Response: Yes

Prompt: Given 18I 31F 72A (protein, listed as Rattus norvegicus, PEPTIDE (1)...(131) wild-type rat intestinal fatty acid binding protein) AFDGTWKVDRNENYEKFIEKMGINVVKRKLFAHDNLKLTITQEGNKFTVKESSNFRNIDVVFELGVDFAYSAADGTELTGTWTMEGNKLVGKFKRVDNGKELIAVREISGNELIQTYTYEGVEAKRIFKKE , state whether its DR/DR AA is at least 0.5.
Response: Yes

Prompt: Is reported DR/DR AA greater than or equal to 0.5 here: 14I 18L 31W 73V 117G 72A (protein, listed as Rattus norvegicus, PEPTIDE (1)...(131) wild-type rat intestinal fatty acid binding protein) AFDGTWKVDRNENIEKFLEKMGINVVKRKLWAHDNLKLTITQEGNKFTVKESSNFRNIDVVFELGVDFAYSAVDGTELTGTWTMEGNKLVGKFKRVDNGKELIAVREISGNELIQTGTYEGVEAKRIFKKE
Response: Yes
